This section presents molecules with their documented GI50 values.
Tested on: HCC 2998
Protocol summary: NCI tumour cell line growth inhibition, 48 h
Active and inactive are the calls of the source. No stated cut-off is given here; in the data, active = GI50 up to about 1.1 µM and inactive = higher.
Observable: GI50

| Molecule | Observable | Test value |
| --- | --- | --- |
| C/C=C\C(CC(=O)NCCC1CN(S(=O)(=O)c2ccc(C)cc2)c2ccccc21)CC(=O)OC (centres undefined) | GI50 | > 100 µM (inactive) |
| CCc1ccccc1NC(=O)C1=C(C)NC(C)=C(C(=O)Nc2c(CC)cccc2CC)C1c1ccc2c(c1)OCO2 (centres undefined) | GI50 | 16.5 µM (inactive) |
| CCOC(=O)C1=C(C(=O)OCC)SC2(S1)C(C(=O)OCC)=C(C(=O)OCC)Sc1c2ssc1=O | GI50 | 2.42 µM (inactive) |
| Cc1ccc(S(=O)(=O)N2c3ccccc3[C@H]3CCc4c([nH]c5ccccc45)[C@H]32)cc1 | GI50 | > 100 µM (inactive) |

----------
Tested on: SK-OV-3
Protocol summary: NCI tumour cell line growth inhibition, 48 h
Active and inactive are the calls of the source. Rule as the data show it: active = GI50 up to about 1.1 µM and inactive = higher.
Observable: GI50

| Compound | Observable | Test value |
| --- | --- | --- |
| NC(=O)N/N=C(/c1nc2ccc([N+](=O)[O-])cc2nc1O)C(O)c1ccco1 (configuration not stated) | GI50 | > 100 µM (inactive) |
| C/C(=N\C1CCCCC1)c1ccccc1O | GI50 | > 100 µM (inactive) |
| CCc1cccc(C)c1NC(C)=O | GI50 | > 100 µM (inactive) |
| N#CCc1c(F)c(F)c(F)c(F)c1F | GI50 | > 100 µM (inactive) |
| CC1=NN(C(=O)c2ccccc2O)C(=O)/C1=C/c1cccc(O)c1 | GI50 | 2.43 µM (inactive) |
| O=c1[nH][nH]c(=O)[nH]1 | GI50 | > 100 µM (inactive) |
| CCN1CCC(O)(c2ccc(Cl)c(Cl)c2)C(C(=O)c2ccc(Cl)c(Cl)c2)C1 (configuration not stated) | GI50 | 18.2 µM (inactive) |

----------
Tested on: SNB-19
Protocol summary: NCI tumour cell line growth inhibition, 48 h
Active and inactive are the calls of the source. Cut-off read from the data, not from the text of the source: active = GI50 up to about 1.1 µM and inactive = higher.
Recorded GI50 for the following compounds

| Compound | Target or system | GI50 |
| --- | --- | --- |
| Cc1c2oc3c(C)cnc(C(=O)NC4C(=O)NC(C(C)C)C(=O)N5CCCC5C(=O)N(C)CC(=O)N(C)C(C(C)C)C(=O)OC4C)c3nc-2c(C(=O)NC2C(=O)NC(C(C)C)C(=O)N3CCCC3C(=O)N(C)CC(=O)N(C)C(C(C)C)C(=O)OC2C)c(N)c1=O (stereo unspecified) | SNB-19 | 0.682 µM (active) |
| CNC(SC)=C1C(=O)OC(C)(C)OC1=O | SNB-19 | > 100 µM (inactive) |
| CSc1n[nH]c2[nH]nc(C)c12 | SNB-19 | > 100 µM (inactive) |
| O=C(O)C/N=C(\C(=N\CC(=O)O)c1ccccc1)c1ccccc1 | SNB-19 | > 100 µM (inactive) |
| c1cncc(C2c3[nH]c4ccccc4c3CCN2CCN2CCCCC2)c1 (stereo unspecified) | SNB-19 | > 100 µM (inactive) |
| COc1cc(CNc2nc3cc(C(F)(F)F)ccc3nc2C)cc(OC)c1OC | SNB-19 | 35.1 µM (inactive) |
